# assay.name: Cytotoxicity against human MT4 cells after 4 days by cell viability assay
# Format: cell-based
# condition: read-out: TC50
quantity.kind: CC50 at 96 h

line.notation: C=C(C)[C@@H]1CC[C@]2(C(=O)NCc3cccc(OC)c3)CC[C@]3(C)[C@H](CC[C@@H]4[C@@]5(C)CC[C@H](OC(=O)CC(C)(C)C(=O)O)C(C)(C)[C@@H]5CC[C@]43C)[C@@H]12
measured.result: > 10 µM
--
line.notation: C=C(C)[C@@H]1CC[C@]2(C(=O)NCc3ncccc3C(=O)O)CC[C@]3(C)[C@H](CC[C@@H]4[C@@]5(C)CC[C@H](OC(=O)CC(C)(C)C(=O)O)C(C)(C)[C@@H]5CC[C@]43C)[C@@H]12
measured.result: > 10 µM

* * *

# assay.name: Tmax in Sprague-Dawley rat at 5 mg/kg, po
# Format: ADME, organism-based
# Set-up: dose 5 mg/kg, route oral
# condition: in vivo

line.notation: C=C(C)[C@@H]1CC[C@]2(C(=O)NCCc3ccc(OC)cc3)CC[C@]3(C)[C@H](CC[C@@H]4[C@@]5(C)CC[C@H](OC(=O)CC(C)(C)C(=O)O)C(C)(C)[C@@H]5CC[C@]43C)[C@@H]12
Tmax [h]: 2

line.notation: C=C(C)[C@@H]1CC[C@]2(C(=O)NCc3ccccc3OC)CC[C@]3(C)[C@H](CC[C@@H]4[C@@]5(C)CC[C@H](OC(=O)CC(C)(C)C(=O)O)C(C)(C)[C@@H]5CC[C@]43C)[C@@H]12
Tmax [h]: 2

line.notation: C=C(C)[C@@H]1CC[C@]2(C(=O)NCc3ccccc3C(=O)O)CC[C@]3(C)[C@H](CC[C@@H]4[C@@]5(C)CC[C@H](OC(=O)CC(C)(C)C(=O)O)C(C)(C)[C@@H]5CC[C@]43C)[C@@H]12
Tmax [h]: 3.2

line.notation: C=C(C)[C@@H]1CC[C@]2(C(=O)NCc3ccc(Cl)cc3)CC[C@]3(C)[C@H](CC[C@@H]4[C@@]5(C)CC[C@H](OC(=O)CC(C)(C)C(=O)O)C(C)(C)[C@@H]5CC[C@]43C)[C@@H]12
Tmax [h]: 2

* * *

Quick reference: remaining at 40 min of the listed items.
# assay.name: Metabolic stability in Sprague-Dawley rat liver microsomes assessed as compound remaining after 40 mins
# Format: ADME, Microsome
# condition: read-out: Stability
quantity.kind: remaining at 40 min (%)

line.notation: C=C(C)[C@@H]1CC[C@]2(C(=O)NCc3cccc(OC)c3)CC[C@]3(C)[C@H](CC[C@@H]4[C@@]5(C)CC[C@H](OC(=O)CC(C)(C)C(=O)O)C(C)(C)[C@@H]5CC[C@]43C)[C@@H]12
measurement.qualifier: =
measured.result: 10

line.notation: C=C(C)[C@@H]1CC[C@]2(C(=O)NCc3ccc4cccc(O)c4n3)CC[C@]3(C)[C@H](CC[C@@H]4[C@@]5(C)CC[C@H](OC(=O)CC(C)(C)C(=O)O)C(C)(C)[C@@H]5CC[C@]43C)[C@@H]12
measurement.qualifier: >
measured.result: 40

line.notation: C=C(C)[C@@H]1CC[C@]2(C(=O)NCc3ccccc3OC)CC[C@]3(C)[C@H](CC[C@@H]4[C@@]5(C)CC[C@H](OC(=O)CC(C)(C)C(=O)O)C(C)(C)[C@@H]5CC[C@]43C)[C@@H]12
measurement.qualifier: =
measured.result: 10

line.notation: C=C(C)[C@@H]1CC[C@]2(C(=O)NCc3ccc(F)cc3C(=O)O)CC[C@]3(C)[C@H](CC[C@@H]4[C@@]5(C)CC[C@H](OC(=O)CC(C)(C)C(=O)O)C(C)(C)[C@@H]5CC[C@]43C)[C@@H]12
measurement.qualifier: =
measured.result: 10

* * *

# assay.name: Oral bioavailability in Sprague-Dawley rat at 7.5 mg/kg
# Format: ADME, organism-based
# condition: in vivo

line.notation: C=C(C)[C@@H]1CC[C@]2(C(=O)NCCc3ccccc3C(=O)NCCC(=O)O)CC[C@]3(C)[C@H](CC[C@@H]4[C@@]5(C)CC[C@H](OC(=O)CC(C)(C)C(=O)O)C(C)(C)[C@@H]5CC[C@]43C)[C@@H]12
bioavailability [%]: 15.5
